Field: pIC50. Provide a value for each of the compounds that follow.
# Assayed Target: human EHMT1 982-1266 (Homo sapiens, UniProt Q9H9B1)
# Sequence (Q9H9B1 982-1266): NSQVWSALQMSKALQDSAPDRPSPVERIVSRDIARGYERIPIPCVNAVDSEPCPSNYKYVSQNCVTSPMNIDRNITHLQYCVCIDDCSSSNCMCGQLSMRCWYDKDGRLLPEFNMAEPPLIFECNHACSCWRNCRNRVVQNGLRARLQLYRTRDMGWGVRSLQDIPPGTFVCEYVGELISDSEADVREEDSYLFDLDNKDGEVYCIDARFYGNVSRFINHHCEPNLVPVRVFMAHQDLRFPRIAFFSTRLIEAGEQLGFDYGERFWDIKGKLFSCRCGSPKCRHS
# Protocol Details: EHMT1 enzyme assay on histone peptide substrate (3H-SAM SPA)
# Run Parameters: EHMT1 IC50, recombinant human EHMT1 982-1266, histone peptide substrate
pIC50: −log10 of the molar value.

Give the measured pIC50 of CCNc1cc(C)nc(Nc2cc3c(c(C4=CCNCCC4)c2)OCC3)n1 .
6.30 to 7.00

Please look up its pIC50: CNc1cc(C)nc(Nc2cc3c(c(C4=CCNC(C)CC4)c2F)OCO3)n1 (single isomer, unassigned) [Compound 369]
> 7.00

Which pIC50 is reported for this compound? [2H]Cc1cc(NC)nc(Nc2cc3c(c(C4=CCN(C)CCC4)c2)OCCO3)n1
> 7.00

Field request: pIC50 | item: CNc1cc(C)nc(Nc2cc3c(c(C4=C[C@@H](C)NCCC4)c2F)OCC3)n1
> 7.00

* * *

# Assayed Target: human EHMT2 913-1193 (Homo sapiens, UniProt Q96KQ7)
# Sequence (Q96KQ7 913-1193): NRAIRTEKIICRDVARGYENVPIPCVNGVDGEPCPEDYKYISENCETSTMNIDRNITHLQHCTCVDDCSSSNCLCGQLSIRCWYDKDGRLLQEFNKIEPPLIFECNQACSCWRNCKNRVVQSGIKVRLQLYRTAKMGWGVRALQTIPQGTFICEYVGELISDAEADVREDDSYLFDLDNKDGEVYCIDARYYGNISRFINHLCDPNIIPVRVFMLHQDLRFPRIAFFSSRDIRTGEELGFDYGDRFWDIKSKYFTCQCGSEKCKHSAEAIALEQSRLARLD
# Protocol Details: EHMT2 enzyme assay on histone peptide substrate (3H-SAM SPA)
# Run Parameters: EHMT2 IC50, recombinant human EHMT2 913-1193, histone peptide substrate
pIC50: −log10 of the molar value.
Parameter: pIC50

Which value of pIC50 has been reported for CNc1cc(C)nc(Nc2cc3c(c(C4=C[C@@H]5CNC[C@@H]5C4)c2F)OCC3)n1 (racemic) in the records?
6.30 to 7.00

What does the record list as pIC50 for Cc1cc(NCC(F)(F)F)nc(Nc2cc3c(c(C4=CCNCCC4)c2)OCC3)n1 ?
6.30 to 7.00

// query pIC50 value for entry COCCCNc1cc(C)nc(Nc2cc3c(c(C4=CCNCCC4)c2)OCC3)n1
> 7.00

Requested read-out: pIC50. Entry: COCCCNc1cc(C)nc(Nc2cc3c(c(C4=CCN(C)CCC4)c2)OCC3)c1
5.70 to 6.30

Please look up its pIC50: CNc1cc(C)nc(Nc2cc3c(c(C4=CCNCC(O)C4)c2F)OCO3)n1 (single isomer, unassigned)
> 7.00

Reported pIC50, molecule CNc1cc(C)nc(Nc2cc3c(c(C4=CCNCCC4)c2)OC(F)(F)O3)n1 : ____
> 7.00

Which pIC50 reading was recorded for the molecule [2H]C([2H])([2H])CNc1cc(C)nc(Nc2cc3c(c(C4=CCNCCC4)c2)OCO3)n1 ?
> 7.00

# pIC50 lookup, item CNc1nc(Nc2cc3c(c(C4=CCN(C)CCC4)c2F)OCC3)nc(C)c1C
> 7.00

For CNc1cc(C)nc(Nc2cc3c(c(C4=CCN(C)CCC4)c2F)OCC3)n1 , what is its reported pIC50?
> 7.00

What value of pIC50 has been recorded for this entry: CNc1cc(C)nc(Nc2cc3c(c(C4=CCN(C(C)C)CCC4)c2F)OCC3)n1
6.30 to 7.00

Which measured pIC50 value corresponds to CNc1cc(C)nc(Nc2cc3c(c(C4=CCNC[C@H](O)C4)c2F)OC[C@H]3C)n1 (stereo in doubt) ?
6.30 to 7.00

# lookup: pIC50 of CNc1cc(C)nc(Nc2cc(OCCCN3CCCC3)c3c(c2)OC(F)(F)O3)n1
5.70 to 6.30

Which pIC50 value is on record for [2H]Cc1cc(NC)nc(Nc2cc3c(c(C4=CCN(C)CCC4)c2)OCC3)n1 ?
> 7.00

Tell me the measured pIC50 of CNc1cc(C)nc(Nc2cc3c(c(C4=CCN(C)CCC4)c2Cl)OCCC3)n1 , please.
> 7.00

Tell me the measured pIC50 of CNc1cc(C)nc(Nc2cc3c(c(C4=CCCNCC4C)c2)OCC3)n1 (centres unmarked) , please.
5.70 to 6.30

What pIC50 value was documented for this molecule, CCNc1cc(C)nc(Nc2cc3c(c(C4=CCNCCC4)c2)OCC3)n1 ?
6.30 to 7.00

Could you share which pIC50 value was measured for CNc1cc(C)nc(Nc2cc3c(c(C4=CCN(C)C(C)CC4)c2F)OCC3)n1 (centres unmarked) ?
> 7.00

Cited source: patent US20240368139A1
